The entries below are paired with their reported AC50.
target: Prostaglandin G/H synthase 1 (Homo sapiens, UniProt P23219); format: functional; note: assay procedure not described here
Sequence (P23219 whole entry): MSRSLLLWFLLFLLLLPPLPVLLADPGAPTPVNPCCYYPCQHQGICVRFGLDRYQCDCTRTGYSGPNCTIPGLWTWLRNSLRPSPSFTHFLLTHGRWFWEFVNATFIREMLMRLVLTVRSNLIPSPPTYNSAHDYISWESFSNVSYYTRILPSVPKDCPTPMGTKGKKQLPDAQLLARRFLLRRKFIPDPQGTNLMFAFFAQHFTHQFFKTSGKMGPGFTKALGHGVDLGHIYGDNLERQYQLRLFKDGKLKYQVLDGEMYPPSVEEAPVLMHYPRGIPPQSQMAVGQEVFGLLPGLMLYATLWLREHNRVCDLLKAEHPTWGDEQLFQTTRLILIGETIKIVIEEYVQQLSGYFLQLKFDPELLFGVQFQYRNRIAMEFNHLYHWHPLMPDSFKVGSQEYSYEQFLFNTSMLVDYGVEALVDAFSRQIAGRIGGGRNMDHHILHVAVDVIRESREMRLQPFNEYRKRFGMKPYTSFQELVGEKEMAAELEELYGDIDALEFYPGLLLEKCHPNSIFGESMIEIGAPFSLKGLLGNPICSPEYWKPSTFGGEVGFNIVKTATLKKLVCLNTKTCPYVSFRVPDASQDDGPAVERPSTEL

# example entries with known answers
In: Which AC50 is reported for this molecule? O=C(Nc1cccc2c(=O)cc(-c3nnn[nH]3)oc12)c1ccc(OCCCCc2ccccc2)cc1
Out: > 30 µM

In: Quick one: AC50 for CC[N+](C)(CC)CCOC(=O)C1c2ccccc2Oc2ccccc21 ?
Out: > 30 µM

In: Report AC50 for CN(C)C(=O)c1nc(CNC(=O)CN)n(-c2ccc(Cl)cc2C(=O)c2ccccc2Cl)n1 please.
Out: > 30 µM

In: Give its AC50 value. Item: O=C(O)CCCc1ccc(N(CCCl)CCCl)cc1
Out: > 30 µM

In: Returns the measured AC50 for the input molecule. Input: CN(C)CCC(c1ccccc1)c1ccccn1 (configuration not stated)
Out: > 30 µM

In: I have this molecule here, CC(=O)OC(C)OC(=O)C(C)c1ccc(-c2ccccc2)c(F)c1 (configuration not stated) , and I need its recorded AC50.
Out: 0.0212 µM

In: // AC50 lookup, key: CN(C)CCN(Cc1ccc(Cl)cc1)c1ccccn1
Out: > 30 µM

In: Sample CCCCC/C=C\C/C=C\C/C=C\CCCCC(=O)O — what was its AC50?
Out: 11.6 µM

Next:
In: Item CN(C)C(=O)Oc1cccc([N+](C)(C)C)c1 has what recorded AC50?
Out: > 30 µM

In: Param item = Nc1nc(N)nc(Nc2ccc([As]3SCC(CO)S3)cc2)n1 (configuration not stated) ; retrieve measured AC50.
Out: 23.5 µM

In: Requested read-out: AC50. Entry: CCCCCCCC(=O)N[C@H](CN1CCCC1)[C@H](O)c1ccc2c(c1)OCCO2
Out: 26.5 µM

In: # AC50 lookup, item O=S(=O)(O)CCS
Out: 0.78 µM

In: State the recorded AC50 for this entry: C[n+]1ccccc1/C=N/O
Out: > 30 µM

In: GET /values?readout=AC50&item= CN(C)c1cc(CNCC(C)(C)C)c(O)c2c1C[C@H]1C[C@H]3[C@H](N(C)C)C(O)=C(C(N)=O)C(=O)[C@@]3(O)C(O)=C1C2=O
Out: 0.16 µM

In: What AC50 value was documented for this molecule, CCN(CC)CCOC(=O)C(Cc1cccc2ccccc12)CC1CCCO1 (configuration not stated) ?
Out: > 30 µM

In: Fill blank: measured AC50 of the molecule CCSc1ccc2c(c1)N(CCCN1CCN(C)CC1)c1ccccc1S2 is ____.
Out: 26.5 µM

In: Name the reported AC50 value associated with the molecule CCCC(=O)O[C@H]1[C@H](C)O[C@@H](O[C@H]2[C@H](N(C)C)[C@@H](O)[C@H](O[C@H]3[C@@H](CC=O)C[C@@H](C)[C@@H](O)/C=C/C=C/C[C@@H](C)OC(=O)C[C@@H](O)[C@@H]3OC)O[C@@H]2C)C[C@@]1(C)OC(=O)CC
Out: > 30 µM

----------
# reported AC50; entries follow
molecular target: D(3) dopamine receptor (Homo sapiens, UniProt P35462); note: assay procedure not described here
Sequence (P35462 whole entry): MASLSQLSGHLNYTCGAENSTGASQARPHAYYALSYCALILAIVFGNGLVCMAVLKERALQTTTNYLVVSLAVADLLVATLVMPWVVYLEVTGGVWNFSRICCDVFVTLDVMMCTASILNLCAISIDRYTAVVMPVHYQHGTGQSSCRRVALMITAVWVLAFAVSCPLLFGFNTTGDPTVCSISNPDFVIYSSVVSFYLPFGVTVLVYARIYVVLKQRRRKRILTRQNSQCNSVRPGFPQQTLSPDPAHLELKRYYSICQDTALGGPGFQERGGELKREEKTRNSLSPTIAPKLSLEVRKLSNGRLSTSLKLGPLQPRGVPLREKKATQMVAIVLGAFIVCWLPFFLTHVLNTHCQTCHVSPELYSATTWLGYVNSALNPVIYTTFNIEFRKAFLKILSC
*1 amine or outer side, *2 acyl side, *3 side chain or, on linkers, in order; H or OH if unused. Where a SMILES comes first, the peptide text is derived from it. Bridges are numbered along the chain shown (N, C = ends). [ ]: non-standard residue; d: D form. The star is where a group is joined. hTyr(3S-OH,4S-OH,3'-OSO3H) = N[C@H](C(=O)O)[C@H](O)[C@@H](O)c1ccc(O)c(OS(=O)(=O)O)c1; Orn(4R-OH,5R-OH) = O=C([C@H](C[C@@H](O)[C@@H](O)N[*:3])N[*:1])[*:2]; Pro(3S-OH,4S-Me) = C[C@H]1CN[C@H](C(=O)O)[C@H]1O; X1 = CCCCCOc1ccc(-c2cc(-c3ccc(C(=O)*)cc3)no2)cc1; Gln(3R-OH) = NC(=O)C[C@@H](O)[C@H](N)C(=O)O; Hyp = O=C(O)[C@@H]1C[C@@H](O)CN1

Some compounds with known AC50 results, for comparison:
In: So what AC50 did CCCCCOc1ccc(-c2cc(-c3ccc(C(=O)N[C@H]4C[C@@H](O)[C@@H](O)NC(=O)[C@@H]5[C@@H](O)[C@@H](C)CN5C(=O)[C@H]([C@H](O)CC(N)=O)NC(=O)[C@H]([C@H](O)[C@@H](O)c5ccc(O)c(OS(=O)(=O)O)c5)NC(=O)[C@@H]5C[C@@H](O)CN5C(=O)[C@H]([C@@H](C)O)NC4=O)cc3)no2)cc1 [MICAFUNGIN] (X1-[Orn(4R-OH,5R-OH)]T[Hyp][hTyr(3S-OH,4S-OH,3'-OSO3H)][Gln(3R-OH)][Pro(3S-OH,4S-Me)]; lactam 1-C) get with D(3) dopamine receptor (Homo sapiens, UniProt P35462)?
Out: > 30 µM

In: Param readout = AC50; param system = D(3) dopamine receptor (Homo sapiens, UniProt P35462); param query = CC[N+](C)(CC)CCOC(=O)C1c2ccccc2Oc2ccccc21 ; response: value; note: assay procedure not described here
Out: > 30 µM

With those in mind, consider the next compound.
In: Param readout = AC50; param system = D(3) dopamine receptor (Homo sapiens, UniProt P35462); param query = C[n+]1ccccc1/C=N/O ; response: value; note: assay procedure not described here
Out: > 30 µM
